Recorded values, source PubChem BioAssay (NCATS).

- system_name: Phenylethanolamine N-methyltransferase (Homo sapiens) (UniProt P11086)
- Sequence (P11086 whole entry, looked up): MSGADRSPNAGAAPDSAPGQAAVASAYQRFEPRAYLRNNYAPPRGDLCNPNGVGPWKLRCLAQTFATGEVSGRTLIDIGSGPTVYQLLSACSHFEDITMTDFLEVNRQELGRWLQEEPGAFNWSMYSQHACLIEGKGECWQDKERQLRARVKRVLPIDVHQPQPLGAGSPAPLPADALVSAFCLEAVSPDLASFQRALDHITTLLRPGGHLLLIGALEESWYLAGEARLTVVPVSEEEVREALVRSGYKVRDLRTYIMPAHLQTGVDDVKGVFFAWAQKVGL
- measurement_description: Confirmatory Screen for Target Class Profiling of Small Molecule Inhibitors of Methyltransferases (AID 1745852)
- settings: MTase-Glo luminescence, SAH detection, recombinant enzyme; measured here: PNMT max response; stronger effect = lower value
reported_property: activity (%)
Give bare numbers, in %.

Batch request: activity for each of the following compounds.
1. Nc1c(NC/C=C\COc2cc(CN3CCCCC3)ccn2)c(=O)c1=O
2. C=CC[N+]1([C@H]2C[C@H]3[C@@H]4CC[C@H]5C[C@H](OC(C)=O)[C@@H](N6CCCCC6)C[C@]5(C)[C@H]4CC[C@]3(C)[C@H]2OC(=O)CC)CCCCC1
3. O=C1NC2CCCCN2C12CCN(CCCN1c3ccccc3CCc3ccc(Cl)cc31)CC2 (centres undefined)
4. CN(C)c1cc2c(Nc3ccc4c(cnn4Cc4ccccc4)c3)ncnc2cn1

Return:
1. -8.61
2. -11.5
3. -1.01
4. -3.6

---

- system_name: Glucocorticoid receptor (Homo sapiens)
- measurement_description: GR-EFC Redistribution (AID 451); further: potency means the concentration at half of the fitted maximal effect
- settings: CHO-K1 GR-EFC translocation, beta-gal luminescence, 2 h
Active and inactive are the calls of the source. Calls follow the shape of the full dose curve.
reported_property: Potency

See these solved cases before continuing.
CCN(CC)CCOc1ccc(/C(=C(\Cl)c2ccccc2)c2ccccc2)cc1	> 20.6 µM (inactive)
CCOC(=O)NNc1nncc2ccccc12	> 20.6 µM (inactive)
Cn1cnc2c(NCc3ccccc3)nc(NCCO)nc21	> 46 µM (inactive)
CN(C(=O)C(Cl)Cl)c1ccc(OC(=O)c2ccco2)cc1	> 20.6 µM (inactive)

Enquiry: Give the reported Potency for this molecule. COc1ccccc1N1CCN(CCN2C(=O)CC3(CCCC3)CC2=O)CC1
Return: > 46 µM (inactive)

---

- Test system: Tov-21-G
- measurement_description: Primary qHTS to identify gynecologic anti-cancer compounds using libraries of approved drugs and bioactive compounds (AID 1345084); further: on the % scale 0 is the no-effect control and ±100 the full control effect; nearly all actives have a fitted effect of over 55% in size
- settings: Gynecologic cancer cell panel viability, ATPlite luminescence, 48 h; series mostly up to 57.5 µM
Inconclusive results are not listed. Active and inactive are the calls of the source. The call rests on the fitted dose curve; in most records, active means well fitted cell-killing curve with a large enough effect; inconclusive means small, poorly fitted or top-dose-only effect, or effect the other way; inactive means flat fitted curve, though single readings scatter.
reported_property: outcome

COc1ccc(OC(=O)N(CC(=O)O)Cc2ccc(OCCc3nc(-c4ccccc4)oc3C)cc2)cc1	inactive
CN1CC(=O)N2[C@H](c3ccc4c(c3)OCO4)c3[nH]c4ccccc4c3C[C@@H]2C1=O	inactive
CN(C(=O)C(Cl)Cl)c1ccc(OC(=O)c2ccco2)cc1	inactive
CC(=O)OC/C=C(C)/C=C/C=C(C)/C=C/C1=C(C)CCCC1(C)C	inactive

Value sought for every listed compound: outcome.
1. Nc1ccc(C(=O)N2CC3CC(CN(Cc4ccccc4)C3)C2)cc1
2. Cc1nc(C2CCCCC2)c(-c2ccc(S(N)(=O)=O)c(F)c2)o1
3. O=C(O)Cc1ccc(OCCNC[C@H](O)c2ccccc2)cc1
4. O=C1Nc2cc(Cl)ccc2Oc2ccccc21
5. CCOC(=O)C(=O)CCc1ccccc1
6. C1=CC2C3C=CC(C3)C2C1 (configuration not stated)
7. O=C(O)c1ccc(OCCN2CCCCC2)cc1
8. CCOC(=O)C(=O)c1csc(NC=O)n1

Return:
1: inactive; 2: inactive; 3: inactive; 4: inactive; 5: inactive; 6: inactive; 7: inactive; 8: inactive

---

- System: WaGa
- measurement_description: qHTS assay to identify novel small-molecules to repurpose for Merkel cell carcinoma treatment (AID 1296009); further: nearly all actives have a fitted effect of over 60% in size
- settings: MCC and control cell lines, CellTiter-Glo viability, 72 h; series mostly up to 46 µM
Inconclusive results are not listed. Active and inactive are the calls of the source. The call rests on the fitted dose curve; in most records, active means well fitted inhibition curve with a large enough effect; inconclusive means small, poorly fitted or top-dose-only effect; inactive means flat fitted curve, though single readings scatter.
Your response should consist of one outcome taken from active, inactive

Please review the entries below; each comes with its answer.
CCCCCCCCCCCCCCCCCCN(C)C	inactive
Cc1cccc(C)c1NC(=O)c1cc(S(N)(=O)=O)c(Cl)cc1O	inactive

Enquiry: Tell me the recorded outcome of this test for O=C(Nc1ccc(Cl)cc1)Nc1ccc(Cl)c(Cl)c1 .
Return: active

Enquiry: Just curious, what result did CC(C)OC(=O)c1cc2c(OCC(O)CNC(C)(C)C)cccc2[nH]1 (stereo unspecified) get here?
Return: inactive

Enquiry: Call for entry O=[N+]([O-])c1ccc(O)c2ncccc12 :
Return: active

Enquiry: Which outcome was entered for the compound CCOC(=O)C(=O)CCc1ccccc1 in this test?
Return: inactive

Enquiry: // outcome(item) with item = CC(C)C[C@H](NC(=O)CNC(=O)[C@H](Cc1ccc(O)cc1)NC(=O)[C@H](CO)NC(=O)[C@H](Cc1c[nH]c2ccccc12)NC(=O)[C@H](Cc1cnc[nH]1)NC(=O)[C@@H]1CCC(=O)N1)C(=O)N[C@@H](CCCN=C(N)N)C(=O)N1CCC[C@H]1C(=O)NCC(N)=O (stereo in doubt)
Return: inactive

Enquiry: For N#Cc1cc(NC(=O)C(=O)O)c(Cl)c(NC(=O)C(=O)O)c1 , which call appears in the assay record?
Return: inactive

Enquiry: # lookup: test call for CCNC(=O)NCCCOc1cccc(CN2CCCCC2)c1
Return: inactive
